Tested on: seven colon lines without BRAF V600E mutation (either with BRAF G596R or KRAS mutations)
Assay: Cell growth inhibition assay, summary of Table 3
Assay type: cell-based
Settings: Homo sapiens; six out of the seven colon lines without BRAF V600E mutation; read-out: IC50s, single agent
measurement.type: IC50

Query: Please supply the value of reported IC50 for the item CC(=O)Nc1cccc(-n2c(=O)n(C3CC3)c(=O)c3c(Nc4ccc(I)cc4F)n(C)c(=O)c(C)c32)c1
Response: 1 to 93 nM

----------
System: NCI-H508
Assay: Cell growth inhibition assay (Cell Titer Glo) and combination data analysis
Format: cell-based
Details: Homo sapiens, 72 h, Colon, BRAF_G596R, 3 days, mean ± std, read-out: IC50 Single Agent Compound A
measurement.type: IC50

Query: Please supply the value of reported IC50 for the item CC(=O)Nc1cccc(-n2c(=O)n(C3CC3)c(=O)c3c(Nc4ccc(I)cc4F)n(C)c(=O)c(C)c32)c1
Response: 10 nM

----------
System: A375PF11
Test: Cell growth inhibition assay (Cell Titer Glo) and combination data analysis
Assay type: cell-based
Conditions: Homo sapiens, A375P-F11, 72 h, Melanoma, BRAF_V600E, 3 days, mean ± std, read-out: IC50 Single Agent Compound A
measurement.type: IC50

Query: Please supply the value of reported IC50 for the item CC(=O)Nc1cccc(-n2c(=O)n(C3CC3)c(=O)c3c(Nc4ccc(I)cc4F)n(C)c(=O)c(C)c32)c1
Response: 1 nM

----------
Tested on: SW1417
Assay: Cell growth inhibition assay (Cell Titer Glo) and combination data analysis
Type: cell-based
Conditions: Homo sapiens, 72 h, Colon, BRAF_V600E, 3 days, mean ± std, read-out: IC50 Single Agent Compound A
measurement.type: pIC50
Scale: pIC50 equals -log10([C]), with [C] in mol/L.

Query: Please supply the value of reported pIC50 for the item CC(=O)Nc1cccc(-n2c(=O)n(C3CC3)c(=O)c3c(Nc4ccc(I)cc4F)n(C)c(=O)c(C)c32)c1 [Compound A]
Response: 8.52

----------
Test system: LS-1034
Experiment: Cell growth inhibition assay (Cell Titer Glo) and combination data analysis
Format: cell-based
Conditions: Homo sapiens, 72 h, Colon, KRAS_A146T, 3 days, read-out: IC50 Single Agent Compound B
pIC50: −log10 of the molar value.
measurement.type: pIC50

Query: Give pIC50 for this entry on LS-1034: CC(C)(C)c1nc(-c2cccc(NS(=O)(=O)c3c(F)cccc3F)c2F)c(-c2ccnc(N)n2)s1 [Compound B]
Response: < 5.00

----------
Tested on: HT-29
Assay: Cell growth inhibition assay (Cell Titer Glo) and combination data analysis
Format: cell-based
Conditions: Homo sapiens, 72 h, Colon, BRAF_V600E, 3 days, mean ± std, read-out: IC50 Single Agent Compound B
measurement.type: pIC50
Scale: pIC50 equals -log10([C]), with [C] in mol/L.

Query: Give pIC50 for this entry on HT-29: CC(C)(C)c1nc(-c2cccc(NS(=O)(=O)c3c(F)cccc3F)c2F)c(-c2ccnc(N)n2)s1
Response: 7.66

----------
Tested on: 12R5-3
Assay: Cell growth inhibition assay (Cell Titer Glo) and combination data analysis
Type: cell-based
Conditions: Homo sapiens, A375P-F11, 72 h, Melanoma, resistant clone of A375 PF11, BRAF_V600E, 3 days, mean ± std, read-out: IC50 Single Agent Compound A
measurement.type: IC50 (nM)
Field: numeric (nM). Do not append units.

Query: Please supply the value of reported IC50 for the item CC(=O)Nc1cccc(-n2c(=O)n(C3CC3)c(=O)c3c(Nc4ccc(I)cc4F)n(C)c(=O)c(C)c32)c1
Response: 92

These data points were gathered from patent US8952018B2.
